Entries and their measured inhibition in vivo at 100 mg/kg follow.
# Test system: carrageenin paw edema
# assay-overview: Antiinflammatory activity according to Winter et al., carrageenin paw edema, modified
# Assay type: in vivo, rat
# details: Rattus norvegicus, po, 4 h; 100 mg/kg per os, female rats; read-out: % inhibition of the edema after 4 hours
Enter your answer as a number in %; do not include the unit.

In the examples that follow, each entry is paired with its recorded inhibition in vivo at 100 mg/kg.
compound="CCN1CCCC1CNC(=O)c1nn(-c2ccccc2)c2c1N(C)S(=O)(=O)c1ccccc1-2 (centres unmarked) [Compound I-24]" recorded_endpoint="inhibition in vivo at 100 mg/kg" display_unit=% observed=45
compound="CN(C)CCCNC(=O)c1nn(-c2cccc(F)c2)c2c1N(C)S(=O)(=O)c1ccccc1-2 [Compound I-21]" recorded_endpoint="inhibition in vivo at 100 mg/kg" display_unit=% observed=19

Could you tell me which inhibition in vivo at 100 mg/kg is on file for CN(C)CCCNC(=O)c1nn(-c2ccccc2)c2c1N(C)S(=O)(=O)c1ccccc1-2 [Compound I-2] ?
17

Returns the measured inhibition in vivo at 100 mg/kg for the input compound. Input: CCN(CC)CCNC(=O)c1nn(-c2cccc(F)c2)c2c1N(C)S(=O)(=O)c1ccccc1-2 [Compound I-20]
21

Requested read-out: inhibition in vivo at 100 mg/kg. Entry: CN1c2c(C(=O)NCCCNC3CCCCC3)nn(-c3ccccc3)c2-c2ccccc2S1(=O)=O [Compound I-4]
50

Entry CCN(CC)CCNC(=O)c1nn(-c2ccccc2)c2c1N(C)S(=O)(=O)c1ccccc1-2 [Compound I-1] has what inhibition in vivo at 100 mg/kg?
16

Given the entry CN1c2c(C(=O)NCCCN3CCOCC3)nn(-c3ccccc3)c2-c2ccccc2S1(=O)=O [Compound I-3] , report its measured inhibition in vivo at 100 mg/kg.
15

# query: inhibition in vivo at 100 mg/kg of entry CN1c2c(C(=O)NCCCNC3CCCCC3)nn(-c3cccc(F)c3)c2-c2ccccc2S1(=O)=O [Compound I-23]
38

* * *

# Tested on: rats
# assay-overview: in vivo
# details: 5 days, rats, per os
recorded-endpoint: Subacute toxicity, relative ratio to naproxen
Please reply with the value in numeric form only.

compound="CCN1CCCC1CNC(=O)c1nn(-c2ccccc2)c2c1N(C)S(=O)(=O)c1ccccc1-2 (centres unmarked) [Compound I-24]" observed=4

Now turn to the next compound.
Reported Subacute toxicity, relative ratio to naproxen, compound CN1c2c(C(=O)NCCCNC3CCCCC3)nn(-c3ccccc3)c2-c2ccccc2S1(=O)=O [Compound I-4] : ____
2

* * *

# assay-overview: in vivo
# details: rat, in vivo, po, 200 mg/kg/day; read-out: % of dead animals per day
recorded-endpoint: mortality (%)
Unit % implied. Number only.

Item CN1c2c(C(=O)NCCCNC3CCCCC3)nn(-c3ccccc3)c2-c2ccccc2S1(=O)=O has what recorded mortality?
4

* * *

Form field: Subacute toxicity, relative ratio to piroxicam (one value per entry).
# System: rats
# assay-overview: in vivo
# details: 5 days, rats, per os
Lab note: record the figure alone, no unit after it.

Request the reported Subacute toxicity, relative ratio to piroxicam associated with CN1C(C(=O)Nc2ccccn2)=C(O)c2ccccc2S1(=O)=O [Piroxicam, piroxicam, reference compound]
1

Look up Subacute toxicity, relative ratio to piroxicam for this compound: CN1c2c(C(=O)NCCCN3CCOCC3)nn(-c3ccccc3)c2-c2ccccc2S1(=O)=O [Compound I-3]
10

Entry CCN(CC)CCNC(=O)c1nn(-c2cccc(F)c2)c2c1N(C)S(=O)(=O)c1ccccc1-2 [Compound I-20] : reported Subacute toxicity, relative ratio to piroxicam = ?
17

I would be grateful if you could share the reported Subacute toxicity, relative ratio to piroxicam for CN1c2c(C(=O)NCCCNC3CCCCC3)nn(-c3cccc(F)c3)c2-c2ccccc2S1(=O)=O [Compound I-23] .
10

Recorded Subacute toxicity, relative ratio to piroxicam of CCN1CCCC1CNC(=O)c1nn(-c2ccccc2)c2c1N(C)S(=O)(=O)c1ccccc1-2 (stereo not drawn) [Compound I-24] , please.
10

* * *

# System: Mouse
# details: per os
LD 50, relative ratio to piroxicam less than 4 is 1; LD 50, relative ratio to piroxicam greater than or equal to 4 is 0.

Previously resolved entries follow.
compound=CN(C)CCCNC(=O)c1nn(-c2cccc(F)c2)c2c1N(C)S(=O)(=O)c1ccccc1-2 class=0
compound="CCN1CCCC1CNC(=O)c1nn(-c2ccccc2)c2c1N(C)S(=O)(=O)c1ccccc1-2 (stereo not shown)" class=1
compound=CCN(CC)CCNC(=O)c1nn(-c2ccccc2)c2c1N(C)S(=O)(=O)c1ccccc1-2 class=0
compound=CN1c2c(C(=O)NCCCN3CCOCC3)nn(-c3ccccc3)c2-c2ccccc2S1(=O)=O class=0
compound=CN(C)CCCNC(=O)c1nn(-c2ccccc2)c2c1N(C)S(=O)(=O)c1ccccc1-2 class=1
compound=CCN(CC)CCNC(=O)c1nn(-c2cccc(F)c2)c2c1N(C)S(=O)(=O)c1ccccc1-2 class=0

Consider the record given below.
Hi there! Is LD 50, relative ratio to piroxicam for CN1C(C(=O)Nc2ccccn2)=C(O)c2ccccc2S1(=O)=O [Piroxicam, piroxicam, reference compound] below 4, do you know?
1

* * *

# assay-overview: in vivo
# details: rat, in vivo, po, 100 mg/kg/day; read-out: % of dead animals
recorded-endpoint: mortality at 120 h (%)
Write the number in % without appending the unit.

Given the molecule CN1c2c(C(=O)NCCCNC3CCCCC3)nn(-c3ccccc3)c2-c2ccccc2S1(=O)=O [Compound I-4] , what is its reported mortality at 120 h?
0

* * *

# System: Rat
# assay-overview: in vivo
# Type: in vivo
# details: per os
Measured LD 50, relative ratio to naproxen, listed per entry.
Answer with the value's number alone.

Some entries whose results are on file:
smiles_repr=CCN(CC)CCNC(=O)c1nn(-c2cccc(F)c2)c2c1N(C)S(=O)(=O)c1ccccc1-2 recorded_endpoint="LD 50, relative ratio to naproxen" observed=4.1
smiles_repr=CN(C)CCCNC(=O)c1nn(-c2ccccc2)c2c1N(C)S(=O)(=O)c1ccccc1-2 recorded_endpoint="LD 50, relative ratio to naproxen" observed=4.4
smiles_repr=CN(C)CCCNC(=O)c1nn(-c2cccc(F)c2)c2c1N(C)S(=O)(=O)c1ccccc1-2 recorded_endpoint="LD 50, relative ratio to naproxen" observed=4.2

// next entry
Given CN1c2c(C(=O)NCCCNC3CCCCC3)nn(-c3cccc(F)c3)c2-c2ccccc2S1(=O)=O , state its recorded LD 50, relative ratio to naproxen.
2.2

* * *

Measured Subacute toxicity, relative ratio to naproxen, listed per entry.
# System: rats
# assay-overview: in vivo
# details: 5 days, rats, per os
Please state the value as a number alone, without comment.

compound="CN(C)CCCNC(=O)c1nn(-c2ccccc2)c2c1N(C)S(=O)(=O)c1ccccc1-2 [Compound I-2]" target_system=rats observed=4
compound="CCN(CC)CCNC(=O)c1nn(-c2ccccc2)c2c1N(C)S(=O)(=O)c1ccccc1-2 [Compound I-1]" target_system=rats observed=4
compound="CN1c2c(C(=O)NCCCN3CCOCC3)nn(-c3ccccc3)c2-c2ccccc2S1(=O)=O [Compound I-3]" target_system=rats observed=4
compound="CN(C)CCCNC(=O)c1nn(-c2cccc(F)c2)c2c1N(C)S(=O)(=O)c1ccccc1-2 [Compound I-21]" target_system=rats observed=7
compound="CN1c2c(C(=O)NCCCNC3CCCCC3)nn(-c3cccc(F)c3)c2-c2ccccc2S1(=O)=O [Compound I-23]" target_system=rats observed=4

Now, please, on to the next compound.
I would be grateful if you could share the reported Subacute toxicity, relative ratio to naproxen for CCN(CC)CCNC(=O)c1nn(-c2cccc(F)c2)c2c1N(C)S(=O)(=O)c1ccccc1-2 [Compound I-20] .
7

* * *

# Tested on: rats
# assay-overview: in vivo
# details: 5 days, rats, per os
# From the text: Five days subacute toxicity in rats per os Animals: 5 female rats for each group, average body weight: 150g.
recorded-endpoint: Subacute toxicity, relative ratio to piroxicam
Give a plain numeric answer without units written out.

smiles_repr=CCN(CC)CCNC(=O)c1nn(-c2ccccc2)c2c1N(C)S(=O)(=O)c1ccccc1-2 observed=10
smiles_repr=CN(C)CCCNC(=O)c1nn(-c2cccc(F)c2)c2c1N(C)S(=O)(=O)c1ccccc1-2 observed=17
smiles_repr=CN1c2c(C(=O)NCCCNC3CCCCC3)nn(-c3ccccc3)c2-c2ccccc2S1(=O)=O observed=5

--- query ---
Quick one: Subacute toxicity, relative ratio to piroxicam for CN(C)CCCNC(=O)c1nn(-c2ccccc2)c2c1N(C)S(=O)(=O)c1ccccc1-2 ?
10

Just for reference, patent US4378358A is where these values come from.
